Target: T1, β Amyloid peptide 1-40 (human, UniProt P05067 672-711)
T1 construct: domain: β Amyloid peptide 1-40; Biotinylated peptide 1-40 (Biosource) on avidin Sepharose only captured free antibody in KinExA; also called Aβ 1-40; human Aβ (1-40)
T1 sequence (P05067 672-711 limits assumed): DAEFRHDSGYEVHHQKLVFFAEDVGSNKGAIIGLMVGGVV
Test: KinExA, mAb, equilibration 16 h
pKd: −log10 of the molar value.
pKd of 10 or higher: Yes. Under 10: No.

INSERT INTO results (binder, label_value) VALUES
  ('1C5 monoclonal antibody (IgG1) (antibody, V domains shown) VH: EVQLVESGGGLVKPGGSLRLSCAASGFTFSRYSMSWVRQAPGKGLEWVGQINSVANSTYYPDTVKGRFTISRDDSKNTLYLQMNSLKTEDTAVYYCTTGDFWGQGTLVTVSS VL: DIVMTQTPLSLSVTPGQPASISCRSSQSLIYSDGNAYLHWYLQKPGQSPQLLIYKVSNRFSGVPDRFSGSGSGTDFTLKISRVEAEDVGVYYCSQSTHSPWTFGGGTKVEIK', 'No'),
  ('1D4 monoclonal antibody (IgG1) (antibody, V domains shown) VH: EVQLVESGGGLVKPGGSLRLSCAASGFTFSRYSMSWVRQAPGKGLEWVGQINSQGNSTYYPDTVKGRFTISRDDSKNTLYLQMNSLKTEDTAVYYCTTGDRWGQGTLVTVSS VL: DIVMTQTPLSLSVTPGQPASISCRSSQSLIYSDGNAYLHWYLQKPGQSPQLLIYKVSNRFSGVPDRFSGSGSGTDFTLKISRVEAEDVGVYYCSQSTHSPWTFGGGTKVEIK', 'No'),
  ('6C3 monoclonal antibody (IgG1) (antibody, V domains shown) VH: EVQLVESGGGLVKPGGSLRLSCAASGFTFSRYSMSWVRQAPGKGLEWVGQINSRGNSTYYPDTVKGRFTISRDDSKNTLYLQMNSLKTEDTAVYYCTTGDFWGQGTLVTVSS VL: DIVMTQTPLSLSVTPGQPASISCRSSQSLIYSDGNAYLHWYLQKPGQSPQLLIYKVSNRFSGVPDRFSGSGSGTDFTLKISRVEAEDVGVYYCTQSTHSPWTFGGGTKVEIK', 'Yes');
